System: intestinal flora
Test: Effects of administration routes on the diversity of intestinal flora in mice (16S rDNA sequencing, OTU)
Format: in vivo
Details: C57BL/6 mice, feces; in combination with recombinant human HAase for subcutaneous administration, five consecutive days; D4
Readout Kind: Relative abundance of OUT (operational taxonomic units) (%)
# output: bare number, implied unit %

The examples below pair each entry with its known result.
In [3]: df
Out[3]:
                           structure_string  system_under_test  observed_result
0  CO/N=C(\C(=O)N[C@@H]1C(=O)N2C(C(=O)O)=C(CSc3nc(=O)c(=O)[nH]n3C)CS[C@H]12)c1csc(N)n1   intestinal flora             33.2
1  C[C@@H](O)[C@H]1C(=O)N2C(C(=O)O)=C(S[C@@H]3CN[C@H](C(=O)Nc4cccc(C(=O)O)c4)C3)[C@H](C)[C@H]12   intestinal flora             31.2
2  CC1=C(C(=O)O)N2C(=O)[C@@H](NC(=O)[C@H](N)C3=CCC=CC3)[C@H]2SC1   intestinal flora             36.2

`CC(C)(O/N=C(\C(=O)N[C@@H]1C(=O)N2C(C(=O)[O-])=C(C[n+]3ccccc3)CS[C@H]12)c1csc(N)n1)C(=O)O` has a reported Relative abundance of OUT (operational taxonomic units) of 33.7
